Entry source: ChEMBL document CHEMBL1151701

# System Tested: E3 ubiquitin-protein ligase Mdm2 (Homo sapiens, UniProt Q00987)
# Sequence (Q00987 whole entry): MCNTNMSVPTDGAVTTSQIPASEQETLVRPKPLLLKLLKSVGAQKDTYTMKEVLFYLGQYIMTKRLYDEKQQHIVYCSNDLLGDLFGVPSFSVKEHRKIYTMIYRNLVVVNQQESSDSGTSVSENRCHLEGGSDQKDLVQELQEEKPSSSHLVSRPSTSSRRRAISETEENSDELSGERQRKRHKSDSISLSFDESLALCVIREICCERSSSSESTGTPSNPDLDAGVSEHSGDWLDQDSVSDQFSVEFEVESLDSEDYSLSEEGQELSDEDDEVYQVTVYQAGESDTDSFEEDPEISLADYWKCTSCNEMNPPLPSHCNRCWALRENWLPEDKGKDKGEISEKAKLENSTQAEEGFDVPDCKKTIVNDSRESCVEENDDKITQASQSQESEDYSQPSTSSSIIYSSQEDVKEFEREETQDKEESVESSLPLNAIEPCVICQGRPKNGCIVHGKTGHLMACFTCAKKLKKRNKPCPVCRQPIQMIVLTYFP
Value Kind: pIC50
Lab note: report pIC50 as minus log10 of the concentration in molar units, number only.

Recorded pIC50, per entry:
# Compound, pIC50
data = [
    ("COc1c(C)c(CCN(C)C)c2c(c1OC)SSSSS2", 3.92),
    ("COc1cc(CCN(C)C)c2c(c1O)SSSSS2 [ISOLISSOCLINOTOXIN B]", 4.23),
]

Then there is this compound:
Exam item: What reported pIC50 corresponds to CSC1=C(CCN)c2nc3ccccc3c3ccnc(c23)C1=O [DIPLAMINE B] on E3 ubiquitin-protein ligase Mdm2 (Homo sapiens, UniProt Q00987)?
Marked response: 3.99
